- target-or-system: nSMase2 (Homo sapiens)
- assay-procedure: Inhibition of nSMase2 (IC50)
- Assay type: biochemical
- applied-conditions: Table 2, Inhibition of nSMase
Where a name gives a salt, the structure may show the parent alone.
measured-metric: IC50 (nM)

compound=Oc1c(OCC(F)(F)F)cc(-c2nc(-c3ccccc3)c(-c3cccs3)[nH]2)cc1OCC(F)(F)F observed_measurement=60
compound=COc1cc(-c2ncc[nH]2)cc(OC)c1O observed_measurement=400
compound=COc1cc(-c2nc(-c3ccc(C)cc3)c(-c3ccc(C)cc3)[nH]2)cc(OC)c1O observed_measurement=60
compound=CCCOc1cc(-c2nc(-c3cccs3)c(-c3ccccc3)[nH]2)cc(OCCC)c1O observed_measurement=40
compound=COc1cc(-c2ncc(C34CC5CC(CC(C5)C3)C4)[nH]2)cc(OC)c1O observed_measurement=200

[P] COc1cc(-c2nc3ccccc3[nH]2)cc(OC)c1O
[Q] Oc1c(OC2CCCC2)cc(-c2nc(-c3ccccc3)c(-c3cccs3)[nH]2)cc1OC1CCCC1
Ask: Given the listed items, does P or Q have the lesser reported IC50? Please indicate the selected item by its label.
Result: Q
(Q: 100 nM, P: 600 nM)

[a] COc1cc(-c2nc3c([nH]2)CCCC3)cc(OC)c1O
[b] COc1cc(-c2nc(-c3ccco3)c(-c3ccco3)[nH]2)cc(OC)c1O [Compound 34, hydrochloride]
Ask: Given the listed items, does a or b have the lesser reported IC50? Please indicate the selected item by its label.
Result: b
(b: 30 nM, a: 400 nM)

[I] CC(C)(C)Oc1cc(-c2nc(-c3ccccc3)c(-c3cccs3)[nH]2)cc(OC(C)(C)C)c1O
[II] CCc1nc(-c2cc(OCC(F)(F)F)c(O)c(OCC(F)(F)F)c2)[nH]c1CC
[III] COc1cc(-c2ncc(C)[nH]2)cc(OC)c1O
Ask: Arrange the 3 compounds from largest to smallest IC50. A ranking is expressed here by listing the labels in the requested order.
Result: II, I, III

[1] CCc1nc(-c2cc(OC)c(O)c(OC)c2)[nH]c1CC
[2] COc1cc(-c2nc(-c3ccccc3)c(-c3ccccc3)[nH]2)cc(OC)c1O
[3] CCCCc1nc(-c2cc(OC)c(O)c(OC)c2)[nH]c1CCCC
[4] COc1cc(-c2nc3c(C)ccc(C)c3[nH]2)cc(OC)c1O
Ask: Arrange the 4 compounds from largest to smallest IC50. A ranking is expressed here by listing the labels in the requested order.
Result: 4, 3, 1, 2

====

- target-or-system: UniProtKB Q9NY59
- Sequence (Q9NY59 1-655): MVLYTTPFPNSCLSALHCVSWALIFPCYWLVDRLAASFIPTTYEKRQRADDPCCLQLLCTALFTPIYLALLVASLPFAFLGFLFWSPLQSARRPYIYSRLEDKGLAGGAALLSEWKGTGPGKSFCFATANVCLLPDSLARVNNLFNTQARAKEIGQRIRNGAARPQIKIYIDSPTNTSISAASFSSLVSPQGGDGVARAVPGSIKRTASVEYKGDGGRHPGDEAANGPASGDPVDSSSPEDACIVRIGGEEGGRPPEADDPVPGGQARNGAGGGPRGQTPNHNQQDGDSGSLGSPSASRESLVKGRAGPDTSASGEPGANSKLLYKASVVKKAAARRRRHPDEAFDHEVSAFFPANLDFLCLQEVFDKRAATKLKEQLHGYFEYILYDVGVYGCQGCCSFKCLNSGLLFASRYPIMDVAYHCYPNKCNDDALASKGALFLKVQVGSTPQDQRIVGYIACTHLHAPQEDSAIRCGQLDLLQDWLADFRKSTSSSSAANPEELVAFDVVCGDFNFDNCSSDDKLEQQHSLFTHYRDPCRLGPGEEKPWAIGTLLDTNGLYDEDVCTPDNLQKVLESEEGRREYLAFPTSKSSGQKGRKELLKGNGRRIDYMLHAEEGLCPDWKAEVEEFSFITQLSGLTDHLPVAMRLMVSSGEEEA
- assay-procedure: Inhibition of nSMase2 (IC50)
- Assay type: biochemical
- applied-conditions: Table 1, Representative Inhibitors of nSMase2 of Formula (I)
pIC50: −log10 of the molar value. Counter-ions that a name gives are not always drawn.
measured-metric: pIC50

The cases that follow already have their pIC50 on record.
molecule="CCc1nc(-c2cc(OC)c(O)c(OC)c2)[nH]c1-c1ccccn1 [Compound 40, hydrochloride]" observed_measurement=6.30
molecule="COc1cc(-c2nc(C)c(-c3ccccc3)[nH]2)cc(OC)c1O [Compound 35]" observed_measurement=7.70
molecule="COc1cc(-c2nc3c([nH]2)CCCC3)cc(OC)c1O [Compound 20]" observed_measurement=6.40
molecule="COc1cc(-c2nc(-c3ccc(C)cc3)c(-c3ccc(C)cc3)[nH]2)cc(OC)c1O [Compound 38]" observed_measurement=7.22
molecule="COc1cc(-c2nc(C(C)C)c(C(C)C)[nH]2)cc(OC)c1O [Compound 47]" observed_measurement=7.22
molecule="COc1cc(-c2ncc[nH]2)cc(OC)c1O [Compound 18, 4-(1H-imidazol-2-yl)-2,6-dimethoxyphenol]" observed_measurement=6.40
molecule="CCc1nc(-c2cc(OCC(F)(F)F)c(O)c(OCC(F)(F)F)c2)[nH]c1CC [Compound 37]" observed_measurement=6.15
molecule="CCCOc1cc(-c2nc(-c3cccs3)c(-c3ccccc3)[nH]2)cc(OCCC)c1O [Compound 31]" observed_measurement=7.40

[P] COc1cc(-c2nc3ccccc3[nH]2)cc(OC)c1O [Compound 42]
[Q] COc1cc(-c2ncc(C)[nH]2)cc(OC)c1O [Compound 24]
[R] COc1cc(-c2nc(-c3ccccc3)c(C(C)C)[nH]2)cc(OC)c1O [Compound 48]
[S] COc1cc(-c2nc(-c3ccco3)c(-c3ccco3)[nH]2)cc(OC)c1O [Compound 34, hydrochloride]
Ask: Provide the items ranked by increasing pIC50. A ranking is expressed here by listing the labels in the requested order.
Result: P, Q, R, S
(P: 6.22, Q: 6.70, R: 7.22, S: 7.52)

[1] COc1cc(-c2ncc(C34CC5CC(CC(C5)C3)C4)[nH]2)cc(OC)c1O [Compound 39]
[2] CC(C)(C)Oc1cc(-c2nc(-c3ccccc3)c(-c3cccs3)[nH]2)cc(OC(C)(C)C)c1O [Compound 45]
[3] COc1cc(-c2nc(-c3ccc(C)cc3)c[nH]2)cc(OC)c1O [Compound 29]
Ask: Provide the items ranked by increasing pIC50. A ranking is expressed here by listing the labels in the requested order.
Result: 2, 1, 3
(2: 6.40, 1: 6.70, 3: 7.00)
